test system: replication-induced senescent mouse newborn dermal fibroblasts (NBF); assay: relative cell viability of senescent cells (fraction); higher = less killing of senescent cells; conditions: 1 µM; 3 days
MEASURED PROPERTY: relative cell viability
Number only, no unit.

Field: example entries. Status: answers known.
Nc1ccc(S(=O)(=O)Nc2ccccn2)cc1	0.951
CN1CCN(CCOc2cc(OC3CCOCC3)c3c(Nc4c(Cl)ccc5c4OCO5)ncnc3c2)CC1	0.626
CCCCCOC(=O)Nc1nc(=O)n([C@@H]2O[C@H](C)[C@@H](O)[C@H]2O)cc1F	0.891
O=C(O)c1cccnc1	0.937

What measured relative cell viability goes with CC(C)OC(=O)C(C(=O)OC(C)C)=C1SC=CS1 [Malotilate] ?
1.04

----------
test system: replication-induced senescent mouse newborn dermal fibroblasts (NBF); assay: relative cell viability of senescent cells (fraction); higher = less killing of senescent cells; settings: 1 µM; 3 days
MEASURED PROPERTY: relative cell viability
Number only, no unit.

Field: example entries. Status: answers known.
Cn1ccnc1S	0.994
CC1Cc2ccccc2N1NC(=O)c1ccc(Cl)c(S(N)(=O)=O)c1 (stereo not given) [Indapamide]	0.965
CC(C)(C)C(=O)OCOP(=O)(COCCn1cnc2c(N)ncnc21)OCOC(=O)C(C)(C)C	0.924
CNC(=O)c1cc(Oc2ccc(NC(=O)Nc3ccc(Cl)c(C(F)(F)F)c3)c(F)c2)ccn1	0.958

Would you kindly look at the next entry?
What measured relative cell viability goes with NS(=O)(=O)c1cc2c(cc1Cl)NC(C(Cl)Cl)NS2(=O)=O (stereo not given) [Trichlormethiazide] ?
0.981

----------
test system: replication-induced senescent mouse newborn dermal fibroblasts (NBF); assay: relative cell viability of senescent cells (fraction); higher = less killing of senescent cells; conditions: 1 µM; 3 days
Where a name gives a salt, the structure may show the parent alone.
// boundary case: relative cell viability equal to 1 maps to no (0); strictly smaller maps to yes (1)

COc1cnc(NS(=O)(=O)c2ccc(N)cc2)nc1 [Sulfameter]	yes (1)
CC(=O)OCC(=O)NCCCOc1cccc(CN2CCCCC2)c1 [Roxatidine Acetate HCl]	yes (1)
C=CC[N+]1([C@H]2C[C@H]3[C@@H]4CC[C@H]5C[C@H](O)[C@@H](N6CCOCC6)C[C@]5(C)[C@H]4CC[C@]3(C)[C@H]2OC(C)=O)CCCC1 [Rocuronium Bromide]	yes (1)

# strict comparison: is reported relative cell viability < 1? input = Cc1cnc(C(=O)NCCc2ccc(S(=O)(=O)NC(=O)NC3CCCCC3)cc2)cn1 [Glipizide]
yes (1)

# strict comparison: is reported relative cell viability < 1? input = CC(=O)O[C@@]12CO[C@@H]1C[C@H](O)[C@@]1(C)C(=O)[C@H](O)C3=C(C)[C@@H](OC(=O)[C@H](O)[C@@H](NC(=O)OC(C)(C)C)c4ccccc4)C[C@@](O)([C@@H](OC(=O)c4ccccc4)[C@H]21)C3(C)C [Docetaxel]
yes (1)

# strict comparison: is reported relative cell viability < 1? input = CCCC(CCC)C(=O)O [Valproic acid sodium salt (Sodium valproate)]
no (0)

# strict comparison: is reported relative cell viability < 1? input = C[C@@H]1CN(c2c(F)c(N)c3c(=O)c(C(=O)O)cn(C4CC4)c3c2F)C[C@H](C)N1 [Sparfloxacin]
yes (1)

# strict comparison: is reported relative cell viability < 1? input = CNS(=O)(=O)CCc1ccc2[nH]cc(C3CCN(C)CC3)c2c1 [Naratriptan HCl]
no (0)

# strict comparison: is reported relative cell viability < 1? input = CN1CC(=O)N2[C@H](c3ccc4c(c3)OCO4)c3[nH]c4ccccc4c3C[C@@H]2C1=O [Tadalafil]
yes (1)

# strict comparison: is reported relative cell viability < 1? input = Nc1nc(=O)n([C@@H]2CS[C@H](CO)O2)cc1F [Emtricitabine]
no (0)

# strict comparison: is reported relative cell viability < 1? input = O=C(/C=C/c1cccc(S(=O)(=O)Nc2ccccc2)c1)NO [Belinostat (PXD101)]
yes (1)

# strict comparison: is reported relative cell viability < 1? input = O=S(=O)(O)CCS [Mesna]
no (0)

# strict comparison: is reported relative cell viability < 1? input = Clc1ccc(Nc2nnc(Cc3ccncc3)c3ccccc23)cc1 [Vatalanib (PTK787) 2HCl]
yes (1)
